EXPERIMENT_DESCRIPTION: yeast growth toxicity, wild-type and mutant, primary screen, cytotoxicity control for eIF2B function restoration project, wild-type and eIF2Bepsilon R284H mutant, A595 (AID 685);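 note: 0% = untreated cell controls and 100% = YPD media blanks without cells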
CONDITION_SUMMARY: S. cerevisiae eIF2Bepsilon-R284H mutant growth, A595 turbidity, 16 h; stronger effect = higher value; screened at 25 µM (by protocol)
About 80 (0.3%) of roughly 30,000 compounds were called active. The sample holds actives, similar compounds and a random draw of the others, so the mix is not that of the screen.
Where growth inhibition equals or exceeds 20%, the correct label is 1; where it does not, the label is -1.

// inclusive: growth inhibition at least 20%? input: `C=CCn1c(SCc2c(C(=O)OC)sc(N)c2C(=O)OC)nnc1-c1ccc(Cl)cc1`
-1

// inclusive: growth inhibition at least 20%? input: `COC(=O)c1ccccc1NC(=O)CN(Cc1ccc(Cl)cc1)S(C)(=O)=O`
-1

// inclusive: growth inhibition at least 20%? input: `CCOC(=O)N1CCN(C(=O)COc2ccc(Br)cc2)CC1`
-1

// inclusive: growth inhibition at least 20%? input: `COc1ccc(CN2CN(C(C)C)CSC2=S)cc1`
1

// inclusive: growth inhibition at least 20%? input: `CCn1c(-c2ccoc2C)n[nH]c1=S`
1

// inclusive: growth inhibition at least 20%? input: `CCn1nccc1C(=O)Nc1ccc(Cl)c(Cl)c1`
-1

// inclusive: growth inhibition at least 20%? input: CCOc1ccc(NC(=O)C2CCCN(C(=O)Nc3ccccc3)C2)cc1 (centres undefined)
-1
